Items are presented alongside their recorded IP.
species on record: Rattus norvegicus; test: Open TG-GATES - Regimen: Daily Repeat; assay type: toxicity, organism-based, Sprague-Dawley; set-up: regimen Daily Repeat, gender Male, age 6 weeks; conditions: in vivo, po, 10 mg/kg, […], tissue Plasma, route gavage, dose level Low, time 7 day

{"Compound": "CC1=C(/C=C/C(C)=C/C=C/C(C)=C/CO)C(C)(C)CCC1", "IP": "6.2 mg/dL"}
{"Compound": "CC(C)OC(=O)C(C)(C)Oc1ccc(C(=O)c2ccc(Cl)cc2)cc1 [FENOFIBRATE]", "IP": "8.1 mg/dL"}
{"Compound": "CN(C)CCN(Cc1cccs1)c1ccccn1", "IP": "6.8 mg/dL"}
{"Compound": "CN(C)CCCN1c2ccccc2CCc2ccccc21", "IP": "7.4 mg/dL"}

---

# Lookup of reported RALB keyed by entry
organism: Rattus norvegicus; experiment: Open TG-GATES - Regimen: Single; assay type: toxicity, organism-based, Sprague-Dawley; parameters: regimen Single, gender Male, age 6 weeks; details: in vivo, po, 0 mg/kg, 24 h, tissue Plasma, route gavage, dose level Control
Reported Endpoint: RALB (g/dL)

{"Molecule": "CC/C(=C(\\c1ccccc1)c1ccc(OCCN(C)C)cc1)c1ccccc1", "Reported Endpoint": "RALB", "Reported": 2.6}
{"Molecule": "CCOc1ccc(NC(=O)CC(C)O)cc1 (stereo not given)", "Reported Endpoint": "RALB", "Reported": 2.6}
{"Molecule": "Cc1ccc(C)c(OCCCC(C)(C)C(=O)O)c1", "Reported Endpoint": "RALB", "Reported": 2.7}
{"Molecule": "NC(N)=Nc1nc(CSCCC(N)=NS(N)(=O)=O)cs1", "Reported Endpoint": "RALB", "Reported": 3.4}
{"Molecule": "COc1ccc2[nH]c([S+]([O-])Cc3ncc(C)c(OC)c3C)nc2c1 (stereo not given)", "Reported Endpoint": "RALB", "Reported": 3.4}

---

KIDNEY_R values for the compounds below.
organism: Rattus norvegicus; assay: Open TG-GATES - Regimen: Single; assay type: toxicity, organism-based, Sprague-Dawley; set-up: regimen Single, gender Male, age 6 weeks; details: in vivo, po, 30 mg/kg, 9 h, tissue Kidney, route gavage, dose level Middle

{"Smiles Text": "CC1=C(/C=C/C(C)=C/C=C/C(C)=C/CO)C(C)(C)CCC1", "KIDNEY_R / g": 0.9}
{"Smiles Text": "CN(C)CCN(Cc1cccs1)c1ccccn1", "KIDNEY_R / g": 0.8}
{"Smiles Text": "CN(C)CCCN1c2ccccc2CCc2ccccc21", "KIDNEY_R / g": 1}
{"Smiles Text": "CN(C)CCCN1c2ccccc2CCc2ccc(Cl)cc21", "KIDNEY_R / g": 0.9}

---

species on record: Rattus norvegicus; experiment: Open TG-GATES - Regimen: Single; assay type: toxicity, organism-based, Sprague-Dawley; set-up: regimen Single, gender Male, age 6 weeks; details: in vivo, po, 300 mg/kg, 3 h, route gavage, dose level Middle
As shown below, each of these compounds has a reported TERMINAL_BW value.

{"Compound": "COc1ccc2[nH]c([S+]([O-])Cc3ncc(C)c(OC)c3C)nc2c1 (centres undefined)", "TERMINAL_BW (g)": 223.6}
{"Compound": "CCOC(=O)CCC(=O)O[C@H]1[C@H](O[C@@H]2[C@@H](C)[C@H](O[C@H]3C[C@@](C)(OC)[C@@H](O)[C@H](C)O3)[C@@H](C)C(=O)O[C@H](CC)[C@@](C)(O)[C@H](O)[C@@H](C)C(=O)[C@H](C)C[C@@]2(C)O)O[C@H](C)C[C@@H]1N(C)C [ERYTHROMYCIN ETHYLSUCCINATE]", "TERMINAL_BW (g)": 220.4}
{"Compound": "NC(N)=Nc1nc(CSCCC(N)=NS(N)(=O)=O)cs1", "TERMINAL_BW (g)": 215.2}
{"Compound": "COC1=CC(=O)C[C@@H](C)[C@]12Oc1c(Cl)c(OC)cc(OC)c1C2=O", "TERMINAL_BW (g)": 212.4}

---

species on record: Rattus norvegicus; assay: Open TG-GATES - Regimen: Daily Repeat; assay type: toxicity, organism-based, Sprague-Dawley; design: regimen Daily Repeat, gender Male, age 6 weeks; conditions: in vivo, po, 1000 mg/kg, […], tissue Blood, route gavage, dose level High, time 14 day
This listing pairs molecules with measured Hb.

{"Molecule": "CCOc1ccc(NC(=O)CC(C)O)cc1 (stereo not given)", "Hb": "12.9 g/dL"}
{"Molecule": "COc1ccc2[nH]c([S+]([O-])Cc3ncc(C)c(OC)c3C)nc2c1 (stereo not given)", "Hb": "11.7 g/dL"}
{"Molecule": "COC1=CC(=O)C[C@@H](C)[C@]12Oc1c(Cl)c(OC)cc(OC)c1C2=O", "Hb": "14.2 g/dL"}
{"Molecule": "NC(N)=Nc1nc(CSCCC(N)=NS(N)(=O)=O)cs1", "Hb": "13.9 g/dL"}
{"Molecule": "CCOC(=O)CCC(=O)O[C@H]1[C@H](O[C@@H]2[C@@H](C)[C@H](O[C@H]3C[C@@](C)(OC)[C@@H](O)[C@H](C)O3)[C@@H](C)C(=O)O[C@H](CC)[C@@](C)(O)[C@H](O)[C@@H](C)C(=O)[C@H](C)C[C@@]2(C)O)O[C@H](C)C[C@@H]1N(C)C [ERYTHROMYCIN ETHYLSUCCINATE]", "Hb": "14.2 g/dL"}

---

organism: Rattus norvegicus; assay: Open TG-GATES - Regimen: Single; type: toxicity, organism-based, Sprague-Dawley; set-up: regimen Single, gender Male, age 6 weeks; conditions: in vivo, po, 10 mg/kg, 6 h, tissue Plasma, route gavage, dose level Low
// reported BUN for each item listed
Reported Endpoint: BUN (mg/dL)

{"Compound": "CN(C)CCCN1c2ccccc2CCc2ccc(Cl)cc21", "Reported": 9.4}
{"Compound": "CN(C)CCCN1c2ccccc2CCc2ccccc21", "Reported": 8.2}
{"Compound": "CC1=C(/C=C/C(C)=C/C=C/C(C)=C/CO)C(C)(C)CCC1", "Reported": 9.4}
{"Compound": "CC(C)OC(=O)C(C)(C)Oc1ccc(C(=O)c2ccc(Cl)cc2)cc1 [FENOFIBRATE]", "Reported": 8.8}
{"Compound": "CN(C)CCN(Cc1cccs1)c1ccccn1", "Reported": 10.8}

---

organism: Rattus norvegicus; assay: Open TG-GATES - Regimen: Single; format: toxicity, organism-based, Sprague-Dawley; set-up: regimen Single, gender Male, age 6 weeks; conditions: in vivo, po, 0 mg/kg, 24 h, tissue Blood, route gavage, dose level Control
Note to self: Ht under 40% means Met, ties and anything higher get Not met.

{"Compound": "NNC(=O)c1ccncc1 [ISONIAZID]", "Label": "Met"}
{"Compound": "NC(N)=Nc1nc(CSCCC(N)=NS(N)(=O)=O)cs1 [FAMOTIDINE]", "Label": "Met"}
{"Compound": "CN(C)CCCN1c2ccccc2CCc2ccc(Cl)cc21 [CLOMIPRAMINE]", "Label": "Not met"}
{"Compound": "COc1cc2c(c(OC)c1OC)-c1ccc(OC)c(=O)cc1[C@@H](NC(C)=O)CC2 [COLCHICINE]", "Label": "Met"}
{"Compound": "CN(C)CCCN1c2ccccc2CCc2ccccc21 [IMIPRAMINE]", "Label": "Not met"}
{"Compound": "CC1=C(/C=C/C(C)=C/C=C/C(C)=C/CO)C(C)(C)CCC1 [RETINOL]", "Label": "Met"}
{"Compound": "COc1ccc2[nH]c([S+]([O-])Cc3ncc(C)c(OC)c3C)nc2c1 (stereo not drawn) [OMEPRAZOLE]", "Label": "Met"}

---

organism: Rattus norvegicus; assay: Open TG-GATES - Regimen: Daily Repeat; type: toxicity, organism-based, Sprague-Dawley; design: regimen Daily Repeat, gender Male, age 6 weeks; details: in vivo, po, 300 mg/kg, […], tissue Plasma, route gavage, dose level Middle, time 28 day
Reported Endpoint: gamma-GTP (IU/L)

{"Molecule": "CCOc1ccc(NC(=O)CC(C)O)cc1 (stereo not given) [BUCETIN]", "Reported": 1}
{"Molecule": "COc1ccc2[nH]c([S+]([O-])Cc3ncc(C)c(OC)c3C)nc2c1 (stereo not given) [OMEPRAZOLE]", "Reported": 1}
{"Molecule": "CCOC(=O)CCC(=O)O[C@H]1[C@H](O[C@@H]2[C@@H](C)[C@H](O[C@H]3C[C@@](C)(OC)[C@@H](O)[C@H](C)O3)[C@@H](C)C(=O)O[C@H](CC)[C@@](C)(O)[C@H](O)[C@@H](C)C(=O)[C@H](C)C[C@@]2(C)O)O[C@H](C)C[C@@H]1N(C)C [ERYTHROMYCIN ETHYLSUCCINATE]", "Reported": 2.2}
{"Molecule": "NC(N)=Nc1nc(CSCCC(N)=NS(N)(=O)=O)cs1 [FAMOTIDINE]", "Reported": 1}
{"Molecule": "COC1=CC(=O)C[C@@H](C)[C@]12Oc1c(Cl)c(OC)cc(OC)c1C2=O [GRISEOFULVIN]", "Reported": 1}
